B1: TPR t1 (parent)
chain: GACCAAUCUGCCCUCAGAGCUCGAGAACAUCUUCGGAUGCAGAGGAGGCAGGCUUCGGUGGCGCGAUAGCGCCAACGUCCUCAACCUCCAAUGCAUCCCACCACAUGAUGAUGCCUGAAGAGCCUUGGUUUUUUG

variants of: B1; test: polymerase ribozyme fitness, log enrichment relative to wild type (log ratio); higher = more active; in vitro selection for triplet polymerase activity
quantity.measured: polymerase ribozyme fitness (log ratio)
Quick one: just the number, no unit, thanks!

Guide cases for polymerase ribozyme fitness (log ratio), answers given:
C3U A27C U130C    -2.28
A46G G60U    -0.448
A16U C114A    -4.01

Problem: Can you share its polymerase ribozyme fitness (log ratio)? I mean this variant: G35A U59C U116G G122U C124G
Result: -6.12

Problem: Now the same for G63U C73A A84U C86U A100G A111C
Result: -6.77

Problem: Now the same for G61C G122A
Result: -2.5

Problem: Now the same for C13A G63A
Result: -2.44

Problem: Now the same for U9A A50U C102A
Result: -1.91

Problem: Now the same for C22U G45U G48C C102A C124G G128A
Result: -6.17

Problem: Now the same for C11U C79G U92G
Result: -6.09

Problem: Now the same for A46G A66U C73A C82G
Result: -2.3

Problem: Now the same for C31G G44U G52U C62U C85U C115U G117A
Result: -7.35

Problem: Now the same for G69C G135U
Result: -2.29

Problem: Now the same for C12A G39U
Result: -1.1

Problem: Now the same for G23U C70A A91G G107U C114U
Result: -5.99

Problem: Now the same for G69A C70U
Result: -3.12

Problem: Now the same for C13A G51U
Result: -5.64

Problem: Now the same for G47A U78C C88A C97A U106A
Result: -5.69

Problem: Now the same for U96G C114U
Result: -2.28

Problem: Now the same for A111G U126C
Result: 0.0972

Problem: Now the same for C64U A74G U78A
Result: -2.93

Problem: Now the same for A43G G61A U78C G117U
Result: -4.59
